- test summary: Induction of 117-bp DNA (unknown origin) alkylation assessed as incubation time required to obtain half of maximum of covalent drug/DNA complex incubated for 5 mins to 24 hrs by gel shift assay
Decide using T1/2: a value greater than or equal to 60 min is true (1), a smaller one is false (0).

hey, is T1/2 for this one >= 60 min? COc1cc2c(c3c1c(=O)c1cc4ccccc4nc1n3C)[C@@H](O)[C@@H](OC(=O)/C=C/c1ccccc1)C(C)(C)O2 (racemic) false (0)

Next up: COc1cc2c(c3c1c(=O)c1cc4ccccc4cc1n3C)C(OC(C)=O)C(OC(C)=O)C(C)(C)O2 (single isomer, unassigned; (-)) false (0)

Ok, now COc1cc2c(c3c1c(=O)c1cc4ccccc4cc1n3C)C(OC(C)=O)C(OC(C)=O)C(C)(C)O2 (single isomer, unassigned; (+)) false (0)

Now this one: COc1cc2c(c3c1c(=O)c1cc4ccccc4nc1n3C)[C@@H](O)[C@@H](OC(=O)/C=C/c1ccc(C(F)(F)F)cc1)C(C)(C)O2 (racemic) true (1)

For COc1cc2c(c3c1c(=O)c1cc4ccccc4cc1n3C)[C@@H](OC(C)=O)[C@@H](OC(C)=O)C(C)(C)O2 (racemic) then? false (0)

Further, for COc1cc2c(c3c1c(=O)c1cc4ccccc4nc1n3C)[C@H](OC(C)=O)[C@H](OC(C)=O)C(C)(C)O2 ? true (1)

====

- test summary: Induction of 117-bp DNA (unknown origin) alkylation assessed as incubation time required to obtain maximum of covalent drug/DNA complex incubated for 5 mins to 24 hrs by gel shift assay
Could you please report measured Tmax for the items listed next?
State the answer as a number, implicitly in h.

For the compound shown here, COc1cc2c(c3c1c(=O)c1cc4ccccc4cc1n3C)[C@@H](OC(C)=O)[C@@H](OC(C)=O)C(C)(C)O2 (racemic) , give the reported Tmax. 2

Please answer likewise for COc1cc2c(c3c1c(=O)c1cc4ccccc4nc1n3C)[C@H](OC(C)=O)[C@H](OC(C)=O)C(C)(C)O2 3

Let us now turn to COc1cc2c(c3c1c(=O)c1cc4ccccc4nc1n3C)[C@@H](O)[C@@H](OC(=O)/C=C/c1ccc(C(F)(F)F)cc1)C(C)(C)O2 (racemic) 8

Would you kindly repeat that for COc1cc2c(c3c1c(=O)c1cc4ccccc4nc1n3C)[C@@H](OC(C)=O)[C@@H](OC(C)=O)C(C)(C)O2 ? 3

Same lookup for COc1cc2c(c3c1c(=O)c1cc4ccccc4nc1n3C)[C@@H](O)[C@@H](OC(=O)/C=C/c1ccccc1)C(C)(C)O2 (racemic) , please. 3

====

- test summary: Cytotoxicity against human KB-3-1 cells after 96 hrs by MTT assay
- Assay type: functional, cell-based
- condition details: KB 3-1, 96 h
Note to self: class labels come from recorded IC50, ranges listed here: zone 1 = under 300 nM, zone 2 = from 300 nM up to 500 nM, zone 3 = 500 nM and over

For this compound, which bin applies? COc1c2c(cc3c1c(=O)c1cc4ccccc4nc1n3C)OC(C)(C)[C@@H](OC(C)=O)[C@H]2OC(C)=O (racemic) zone 3

Lookup COc1cc2c(c3c1c(=O)c1cc4ccccc4nc1n3C)[C@@H](OC(C)=O)[C@@H](OC(=O)/C=C/c1ccccc1)C(C)(C)O2 (racemic) zone 2

Lookup COc1c2c(cc3c1c(=O)c1cc4ccccc4nc1n3C)OC(C)(C)C=C2 zone 3

Param item: COc1c2c(cc3c1c(=O)c1cc4ccccc4nc1n3C)OC(C)(C)[C@@H](O)[C@H]2O (racemic) zone 3

Now try COc1cc2c(c3c1c(=O)c1cc4ccccc4nc1n3C)[C@@H](OC(=O)/C=C/c1ccc(C(F)(F)F)cc1)[C@@H](OC(=O)/C=C/c1ccc(C(F)(F)F)cc1)C(C)(C)O2 (racemic) . zone 2

Now this one: COc1ccc(/C=C/C(=O)O[C@@H]2[C@H](OC(C)=O)c3c(cc(OC)c4c(=O)c5cc6ccccc6nc5n(C)c34)OC2(C)C)cc1 (racemic) zone 2

Moving on to COc1cc2c(c3c1c(=O)c1cc4ccccc4nc1n3C)[C@@H](OC(C)=O)[C@@H](OC(=O)/C=C/c1ccc(C(F)(F)F)cc1)C(C)(C)O2 (racemic) zone 2

And for COc1ccc(/C=C/C(=O)O[C@@H]2c3c(cc(OC)c4c(=O)c5cc6ccccc6nc5n(C)c34)OC(C)(C)[C@@H]2OC(=O)/C=C/c2ccc(OC)cc2)cc1 (racemic) ? zone 2

Try COc1cc2c(c3c1c(=O)c1cc4ccccc4nc1n3C)[C@H](OC(C)=O)[C@H](OC(C)=O)C(C)(C)O2 next. zone 1

Subsequent entry: COc1cc2c(c3c1c(=O)c1ccccc1n3C)C=CC(C)(C)O2 zone 3

And what about the compound COc1ccc(/C=C/C(=O)O[C@@H]2[C@H](O)c3c(cc(OC)c4c(=O)c5cc6ccccc6nc5n(C)c34)OC2(C)C)cc1 (racemic) ? zone 1

Also, COc1cc2c(c3c1c(=O)c1cc4ccccc4cc1n3C)[C@@H](OC(C)=O)[C@@H](OC(C)=O)C(C)(C)O2 (racemic) please. zone 1

Would you mind doing COc1cc2c(c3c1c(=O)c1cc4ccccc4nc1n3C)C(OC(C)=O)C(OC(C)=O)C(C)(C)O2 (racemic) as well? zone 1
